The measured values listed here are drawn from PubChem BioAssay AID488899.

For each entry below, report its inhibition value.
# TEST DESCRIPTION: MITF transcriptional activity suppression – cell-based, SK-MEL-5, single point, luciferase, primary screen (AID 488899)
# CONDITION CONTEXT: SK-MEL-5 TRPM1 promoter luciferase, 24 h; at 12.5 µM; stronger effect = higher value
Among all 330,000 compounds or so, about 2,800 (0.85%) were called active. Only a selection was taken, and actives are over-represented in it overall.
Quick note: give the figure in %, leave out the unit.

Tell me inhibition reported for COC(=O)c1sccc1NC(=S)Nc1ccc(C)cc1 -74.3

Supply inhibition value. Item: COc1cccc2c1C(=O)c1c(O)c3c(c(O)c1C2=O)CC(O)(C(C)=NNC(=O)c1ccc(Cl)c(Cl)c1)CC3OC1CC(N)C(O)C(C)O1 (stereo not given) 82.2

Consider the molecule CCN(CC(=O)Nc1ccc(OC)cc1)C(=O)CSCc1ccc(C)cc1 and give its recorded inhibition. -0.141

Read off the recorded inhibition for CC(C)(c1ccccc1)c1ccc(OCCN)cc1 -6.11

For the molecule Cc1cc(C(=O)N/N=C/c2ccccn2)c2ccccc2n1 , report inhibition. -2.21

State, in one line, measured inhibition of COc1ccc(CS(=O)/C(Cl)=C(/Cl)C(=O)Nc2ccc(OC)nc2)cc1 (stereo not given) 99.4

Specify reported inhibition for the molecule shown: Cc1cc(C)n(CC(O)COc2ccc(C(C)(C)C)cc2)n1 (stereo not given) -18.8

Answer with reported inhibition of CCn1c(CC(=O)Nc2ccc(C)cc2)nnc1SCC(=O)Nc1nc(C)cs1 6.57

Identify inhibition associated with the molecule COc1ccc(NC(=O)/C(Cl)=C(/Cl)S(=O)Cc2ccc(C)cc2)cn1 (stereo not given) 113

For CN(C)CC(O)COc1ccc(C(C)(C)c2ccc(OCC(O)CN(C)C)cc2)cc1 (stereo not given) , write its inhibition. 65.7
